Biological target: MAP kinase-activated protein kinase 2 (Homo sapiens) (UniProt P49137)
Sequence (P49137 whole entry, looked up): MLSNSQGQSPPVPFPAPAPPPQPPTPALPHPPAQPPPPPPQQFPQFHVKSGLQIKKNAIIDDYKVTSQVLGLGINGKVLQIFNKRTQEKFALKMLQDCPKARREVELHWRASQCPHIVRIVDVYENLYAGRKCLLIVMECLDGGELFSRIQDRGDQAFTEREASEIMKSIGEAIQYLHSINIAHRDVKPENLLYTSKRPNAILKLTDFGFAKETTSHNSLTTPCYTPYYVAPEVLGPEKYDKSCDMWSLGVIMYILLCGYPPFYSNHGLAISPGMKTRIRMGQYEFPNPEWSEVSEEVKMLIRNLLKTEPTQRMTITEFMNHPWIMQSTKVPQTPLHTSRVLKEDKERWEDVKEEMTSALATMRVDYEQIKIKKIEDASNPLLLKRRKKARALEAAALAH
Conditions: at 1 µM
measuredEndpoint: residual activity (%)

compoundStructure	measuredValue
Nc1ccc2ncnc(NCCc3ccc(Oc4ccccc4)cc3)c2c1	70
O=c1cc(-c2cccc3c2Sc2ccccc2S3)oc(N2CCOCC2)c1	100
Oc1ccc(Nc2nc(-c3ccc(Cl)cc3)cs2)cc1	108
Cn1cc(/C=C2\C(=O)Nc3ccc(S(N)(=O)=O)cc32)c2ccccc21	83
O=[N+]([O-])c1ccc(-c2nc(-c3ccc(F)cc3)c(-c3ccncc3)[nH]2)cc1	92
Cc1nc2cc3nc(-c4cccs4)cnc3cc2n1C	104
CCOc1cc2ncnc(Nc3cccc(Br)c3)c2cc1OCC	73
COc1cccc(-c2cc(=O)c3ccccc3o2)c1N	99
CO[C@H]1C[C@@H]2CC[C@@H](C)[C@@](O)(O2)C(=O)C(=O)N2CCCC[C@H]2C(=O)O[C@H]([C@H](C)C[C@@H]2CC[C@@H](O)[C@H](OC)C2)CC(=O)[C@H](C)/C=C(\C)[C@@H](O)[C@@H](OC)C(=O)[C@H](C)C[C@H](C)/C=C/C=C/C=C/1C	86
